Quick list: GI50 per entry.
# TGT: BaF3 cell lines stably transfected with kinase EGFR Del/T790M (Homo sapiens, UniProt P00533, T790M, cells depend on it, form not given)
# Sequence (P00533 with tags, fused parts or gaps DEL746-750/T790M, form open): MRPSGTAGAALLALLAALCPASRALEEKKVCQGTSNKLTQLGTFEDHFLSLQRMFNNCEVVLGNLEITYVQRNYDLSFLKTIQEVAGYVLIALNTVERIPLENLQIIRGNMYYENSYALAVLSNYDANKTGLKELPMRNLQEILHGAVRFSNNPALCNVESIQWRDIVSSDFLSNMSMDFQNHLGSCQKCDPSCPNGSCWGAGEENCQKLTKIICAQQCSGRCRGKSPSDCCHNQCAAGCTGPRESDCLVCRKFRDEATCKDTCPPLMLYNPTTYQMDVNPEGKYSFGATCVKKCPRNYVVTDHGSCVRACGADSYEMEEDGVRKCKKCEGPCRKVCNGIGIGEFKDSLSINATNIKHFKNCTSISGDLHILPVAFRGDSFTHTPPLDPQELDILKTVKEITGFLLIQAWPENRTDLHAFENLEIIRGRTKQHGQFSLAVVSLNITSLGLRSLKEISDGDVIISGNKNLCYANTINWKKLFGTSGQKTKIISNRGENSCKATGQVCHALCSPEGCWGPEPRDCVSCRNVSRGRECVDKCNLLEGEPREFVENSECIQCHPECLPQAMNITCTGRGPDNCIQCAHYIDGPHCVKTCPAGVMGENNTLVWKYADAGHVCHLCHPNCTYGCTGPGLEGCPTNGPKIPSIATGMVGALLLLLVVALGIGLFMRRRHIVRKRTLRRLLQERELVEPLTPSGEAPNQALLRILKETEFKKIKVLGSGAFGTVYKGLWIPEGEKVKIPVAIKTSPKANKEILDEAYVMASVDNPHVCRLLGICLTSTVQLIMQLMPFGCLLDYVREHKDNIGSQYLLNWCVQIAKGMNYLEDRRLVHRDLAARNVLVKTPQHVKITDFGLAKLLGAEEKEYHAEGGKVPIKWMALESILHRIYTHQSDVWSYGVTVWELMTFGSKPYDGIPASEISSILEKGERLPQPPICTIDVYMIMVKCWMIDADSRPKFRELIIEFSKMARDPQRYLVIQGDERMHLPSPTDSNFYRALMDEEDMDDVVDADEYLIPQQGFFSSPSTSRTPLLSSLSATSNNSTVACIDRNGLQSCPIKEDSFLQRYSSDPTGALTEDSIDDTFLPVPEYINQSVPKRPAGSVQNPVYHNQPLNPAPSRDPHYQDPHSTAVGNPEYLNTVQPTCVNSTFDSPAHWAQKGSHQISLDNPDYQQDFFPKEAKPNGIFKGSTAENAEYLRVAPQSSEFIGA
# METHOD: Growth inhibition of BaF3 cell line stably transfected with kinase EGFR Del/T790M (MTS)
# Type: cell-based
# CONDITION INFO: 48 h, read-out: growth inhibitory activity IC50, Del/T790M

Example results:
Request: Fill in: GI50 of C=Cc1cnc(Nc2cccc(C3CCN(C)CC3)c2)nc1Nc1ccc2nccnc2c1P(C)(C)=O [Compound I-22] is ___
Response: 0.05 to 0.5 µM

Request: Fill in: GI50 of C=Cc1cnc(Nc2ccc3c(c2)CN(C)CC3)nc1Nc1ccc2nccnc2c1N(C)S(C)(=O)=O [II-77] is ___
Response: ≤ 0.05 µM

Request: Fill in: GI50 of C=Cc1cnc(Nc2cc(CC)c(N3CCC(N4CCN(C)CC4)CC3)cc2OC)nc1Nc1ccc2nccnc2c1N(CC)S(C)(=O)=O [II-12] is ___
Response: ≤ 0.05 µM

Request: Fill in: GI50 of C=Cc1cnc(Nc2cc3c(cc2F)CCN(C)C3)nc1Nc1ccc2nccnc2c1N(C)S(C)(=O)=O [II-74] is ___
Response: 0.05 to 0.5 µM

Request: Fill in: GI50 of C=Cc1cnc(Nc2cc(C(C)C)c(N3CCC(N4CCN(C)CC4)CC3)cc2OC)nc1Nc1ccc2nccnc2c1P(C)(C)=O [Compound I-16] is ___
Response: 0.05 to 0.5 µM

More entries:
Request: Fill in: GI50 of C=Cc1cnc(Nc2cc(C3CC3)c(N3CCC(N4CCN(C)CC4)CC3)cc2OC)nc1Nc1ccc2nccnc2c1P(C)(C)=O [Compound I-17] is ___
Response: 0.05 to 0.5 µM

Request: Fill in: GI50 of C=Cc1cnc(Nc2cc(CC)c(N3CCC(N4CCN(C)CC4)CC3)cc2OC)nc1Nc1ccc2nccnc2c1N(C)S(=O)(=O)C(F)(F)F [II-8] is ___
Response: 0.05 to 0.5 µM
